MEASURE: melting point

In: Find the measured melting point of CCCCCCCCNC(=O)n1oc2ccccc2c1=O [Example 5] and report it.
Out: 47 to 48 °C

Continuing:
In: Look up and state reported melting point for CCc1ccccc1CNC(=O)n1oc2ccccc2c1=O [Example 14]
Out: 107 to 109 °C

In: Recall and state the measured melting point for CCCCNC(=O)n1oc2ccccc2c1=O [Example 2] .
Out: 64 to 65 °C

In: State its melting point: O=C(NCc1ccccc1F)n1oc2ccccc2c1=O [Example 12]
Out: 142 to 143 °C

In: Give a short answer stating reported melting point for O=C(NCC1CCCCC1)n1oc2ccccc2c1=O [Example 6] .
Out: 82 to 84 °C
